System: PPIs identified as affected by the SH3 domain deletions
ASSAY EXPLANATION: Liquid DHFR-PCA low-throughput validation of PPIs affected by SH3 deletion (Fig. S1D-E)
Type: cell-based, Saccharomyces cerevisiae
EXPERIMENTAL SETUP: bait MYO3; label = prey; liquid DHFR-PCA; prey _1 = lost, _2 = gained in screen
RECORDED ENDPOINT: Ratio (Deletedscore / WTscore)

>>> recorded_number("YNL084C_1 (protein, UniProt P39013 1-349, looked up) Actin cytoskeleton-regulatory …: MPKLEQFEIKKYWQIFSGLKPIENKVNHDQVLPILYNSKLDSSVLNKIWFLADIDDDDNLDFEEFVICMRLIFDMVNKNISSVPDELPDWLIPGSKVNLIKERKKRKQIENADLPPKKEIKVDWYMSPDDLNQYEKIYNSCAKLTDGTITFNELSTKLSTKFFNISKTDLNKVWSLINPQNLPSIDRDPTFYFIHCLRQRNDLGAEIPASLPNSLAEVCNKKQLSYDLRSSQPPTKRKEEANEVDNLRDNGQNSSSDSSGSNVLSNEDSIKQKYASLTDDQVANMREQLEGLLNYKKSEKTQGGSKLSKRINIRSITDDLDNIEQQVEVLENYLNNKRHELQALQAEIN")
0.5035
>>> recorded_number("YGR037C_2 (protein, UniProt P31787 1-87, looked up) Acyl-CoA-binding protein: MVSQLFEEKAKAVNELPTKPSTDELLELYALYKQATVGDNDKEKPGIFNMKDRYKWEAWENLKGKSQEDAEKEYIALVDQLIAKYSS")
1.004
>>> recorded_number("YFR004W_2 (protein, UniProt P43588 1-306, looked up) Ubiquitin carboxyl-terminal …: MERLQRLMMNSKVGSADTGRDDTKETVYISSIALLKMLKHGRAGVPMEVMGLMLGEFVDDYTVNVVDVFAMPQSGTGVSVEAVDDVFQAKMMDMLKQTGRDQMVVGWYHSHPGFGCWLSSVDVNTQKSFEQLNSRAVAVVVDPIQSVKGKVVIDAFRLIDTGALINNLEPRQTTSNTGLLNKANIQALIHGLNRHYYSLNIDYHKTAKETKMLMNLHKEQWQSGLKMYDYEEKEESNLAATKSMVKIAEQYSKRIEEEKELTEEELKTRYVGRQDPKKHLSETADETLENNIVSVLTAGVNSVAIK")
1.308

Reference for the values: paper PMC7954794
